Where do these numbers come from? They come from patent US7781453B2.

Assay Endpoint: melting point (°C)
Give just the numeric value; °C need not be written.

Previously resolved entries follow.
Cc1cc(N)nc(CCc2nc3cc(-c4ccc(S(=O)(=O)N5CCCC5)cc4)cnc3[nH]2)c1 [compound 18]; 171
Cc1cc(N)nc(CC(C)c2nc3cccnc3[nH]2)c1 (racemic) [compound 2]; 48
CC(=O)O.Cc1cc(N)nc(CCc2nc3cccnc3[nH]2)c1; 54
Cc1cc(N)nc(CCc2nc3cc(-c4ccc(S(=O)(=O)N5CCCCC5)cc4)cnc3[nH]2)c1 [compound 19]; 233
Cc1ccc(-c2cnc3[nH]c(CCc4cc(C)cc(N)n4)nc3c2)cc1.Cl; 186
Cc1cc(N)nc(CCc2nc3cc(-c4cc(Cl)cc(Cl)c4)cnc3[nH]2)c1 [compound 14]; 224

## Input For the compound Cc1cc(N)nc(CCc2nc3cccnc3[nH]2)c1.Cl , what melting point is on record?
## Output 136

## Input # repeat for Cc1cc(N)nc(CCc2nc3cc(-c4ccc(C#N)cc4)cnc3[nH]2)c1 [compound 6]
## Output 218

## Input Now this one: Cc1cc(N)nc(CCc2nc3cc(-c4ccc(S(=O)(=O)N5CCN(C)CC5)cc4)cnc3[nH]2)c1 [compound 21]
## Output 135

## Input Same read-out for Cc1cc(N)nc(CCc2nc3cc(-c4ccccc4)cnc3[nH]2)c1 [compound 5] ?
## Output 230

## Input Queued: Cc1cc(N)nc(CCc2nc3cc(-c4cccc(O)c4)cnc3[nH]2)c1 [compound 16]
## Output 162

## Input And what about the compound Cc1cc(N)nc(CCc2nc3cc(-c4cccc(OCc5ccccc5)c4)cnc3[nH]2)c1 [compound 13] ?
## Output 181

## Input Same question for Cc1cc(N)nc(CCc2nc3cc(Br)cnc3[nH]2)c1 [compound 4] please.
## Output 216

## Input Also Cc1cc(N)nc(CCc2nc3cc(-c4ccc(S(=O)(=O)N5CCC5)cc4)cnc3[nH]2)c1 [compound 17] ?
## Output 168

## Input Please do the same for Cc1cc(N)nc(CCc2nc3cc(-c4ccc(OCc5ccccc5)cc4)cnc3[nH]2)c1 [compound 15] as well.
## Output 225
